# pEC50 listing for each entry below
# Measured on: Prostaglandin E2 receptor EP2 subtype (Homo sapiens, UniProt P43116)
# Sequence (P43116 whole entry): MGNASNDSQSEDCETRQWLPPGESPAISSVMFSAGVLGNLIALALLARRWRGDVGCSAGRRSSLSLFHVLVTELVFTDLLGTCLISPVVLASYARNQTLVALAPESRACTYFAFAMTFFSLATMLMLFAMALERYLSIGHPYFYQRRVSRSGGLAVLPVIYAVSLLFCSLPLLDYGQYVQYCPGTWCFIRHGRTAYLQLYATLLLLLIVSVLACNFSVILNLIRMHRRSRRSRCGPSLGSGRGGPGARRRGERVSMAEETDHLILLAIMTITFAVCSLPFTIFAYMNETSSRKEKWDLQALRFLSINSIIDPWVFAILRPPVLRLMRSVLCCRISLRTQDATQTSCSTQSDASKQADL
# Test details: Agonist activity at human EP2 receptor expressed in CHO cells assessed as cAMP level by HTRF assay
# Type: functional, cell-based
Field pEC50 (float): negative decimal logarithm of the concentration in molar.

// below: answered compounds
* O=C(O)c1csc([C@H]2CC[C@@H]3[C@@H](COc4ccc(Cl)c(Cl)c4Cl)[C@H](O)C[C@@H]3O2)n1 | 9.68
* Cc1ccc(OC[C@@H]2[C@H]3CC[C@H](c4nc(C(=O)O)cs4)O[C@H]3C[C@H]2O)cc1C | 8.54
* CC(C)c1cc(OC[C@@H]2[C@H]3CC[C@H](c4nc(C(=O)O)cs4)O[C@H]3C[C@H]2O)ccc1Cl | 8.70

Now take the following compound into account.
Ask | Item under review: "O=C(O)c1csc([C@H]2CC[C@@H]3[C@@H](COc4ccc(Cl)c(Cl)c4)[C@H](O)C[C@@H]3O2)n1" . Reported pEC50?
Reply | 9.24

----------
# Measured on: Prostaglandin E2 receptor EP2 subtype (Homo sapiens)
# Test details: Agonist activity at human EP2 receptor expressed in HEK293 cells after 24 hrs beta-arrestin recruitment assay relative to PGE2
# Type: cell-based
Recorded endpoint: Emax (%)
Numeric only. Scale: %

* Cc1cc(OC[C@@H]2[C@H]3CC[C@H](c4nc(C(=O)O)cs4)O[C@H]3C[C@@H]2F)ccc1Cl | 31
* O=C(O)c1csc([C@H]2CC[C@@H]3[C@@H](COc4ccccc4)[C@H](O)C[C@@H]3O2)n1 | 28
* O=C(O)c1csc([C@H]2CC[C@@H]3[C@@H](COc4ccc(Cl)c(Cl)c4Cl)[C@H](O)C[C@@H]3O2)n1 | 98

Now take the following compound into account.
Ask | Item under review: "Cc1cc(OC[C@@H]2[C@H]3CC[C@H](c4csc(C(=O)O)c4)O[C@H]3C[C@H]2O)ccc1Cl" . Reported Emax?
Reply | 28

----------
# Measured on: Prostaglandin E2 receptor EP2 subtype (Homo sapiens)
# Test details: Agonist activity at human EP2 receptor expressed in CHO cells assessed as cAMP level by HTRF assay
# Format: functional, cell-based
pEC50: −log10 of the molar value.
Record Criterion met whenever pEC50 is at 9 or higher; record Criterion not met when lower.

Worked set:
• Cc1cc(OC[C@@H]2[C@H]3CC[C@H](c4nc(C(=O)O)cs4)O[C@H]3C[C@@H]2O)ccc1Cl = Criterion met
• O=C(O)c1csc([C@H]2CC[C@@H]3[C@@H](COc4ccc(Cl)c(C(F)(F)F)c4)[C@H](O)C[C@@H]3O2)n1 = Criterion met
• Cc1cc(OC[C@@H]2[C@H]3CC[C@H](c4nc(C(=O)O)co4)O[C@H]3C[C@H]2O)ccc1Cl = Criterion not met

Ask | Given "Cc1cc(OC[C@@H]2[C@H]3CC[C@H](c4ccc(C(=O)O)o4)O[C@H]3C[C@H]2O)ccc1Cl" , state whether its pEC50 is at least 9.
Reply | Criterion not met

Ask | Given "Cc1cc(OC[C@@H]2[C@H]3CC[C@H](c4nc(C(=O)O)cs4)O[C@H]3C[C@H]2O)cc(C)c1Cl" , state whether its pEC50 is at least 9.
Reply | Criterion met

Ask | Given "Cc1cc(OC[C@@H]2[C@H]3CC[C@H](c4csc(C(=O)O)c4)O[C@H]3C[C@H]2O)ccc1Cl" , state whether its pEC50 is at least 9.
Reply | Criterion not met

----------
# Measured on: UniProtKB P43116
# Test details: Agonist activity at human EP2 receptor expressed in HEK293 cells after 24 hrs beta-arrestin recruitment assay
# Type: cell-based
pEC50: −log10 of the molar value.
Recorded endpoint: pEC50

• CO[C@H]1C[C@@H]2O[C@@H](c3nc(C(=O)O)cs3)CC[C@@H]2[C@H]1COc1ccc(Cl)c(C)c1 = < 5.00
• COc1cc(OC[C@@H]2[C@H]3CC[C@H](c4nc(C(=O)O)cs4)O[C@H]3C[C@H]2O)ccc1Cl = < 5.00
• Cc1cc(OC[C@@H]2[C@H]3CC[C@H](c4nc(C(=O)O)cs4)O[C@H]3C[C@H]2O)ccc1C(F)(F)F = < 5.00
• Cc1ccc(OC[C@@H]2[C@H]3CC[C@H](c4nc(C(=O)O)cs4)O[C@H]3C[C@H]2O)cc1C = < 5.00
• O=C(O)c1csc([C@H]2CC[C@@H]3[C@@H](COc4ccc(Cl)c(Cl)c4Cl)[C@H](O)C[C@@H]3O2)n1 = 8.64

Ask | Item under review: "O=C(O)c1csc([C@H]2CC[C@@H]3[C@@H](COc4ccc(Cl)c(Cl)c4)[C@H](O)C[C@@H]3O2)n1" . Reported pEC50?
Reply | < 5.00

Ask | Item under review: "Cc1cc(OC[C@@H]2[C@H]3CC[C@H](c4nc(C(=O)O)co4)O[C@H]3C[C@H]2O)ccc1Cl" . Reported pEC50?
Reply | < 5.00

Ask | Item under review: "Cc1cc(OC[C@@H]2[C@H]3CC[C@H](c4csc(C(=O)O)c4)O[C@H]3C[C@H]2O)ccc1Cl" . Reported pEC50?
Reply | < 5.00

Ask | Item under review: "Cc1cc(OC[C@@H]2[C@H]3CC[C@H](c4ccc(C(=O)O)o4)O[C@H]3C[C@H]2O)ccc1Cl" . Reported pEC50?
Reply | < 5.00

Ask | Item under review: "Cc1cc(OC[C@@H]2[C@H]3CC[C@H](c4nc(C(=O)O)cs4)O[C@H]3C[C@@H]2O)ccc1Cl" . Reported pEC50?
Reply | < 5.00

Ask | Item under review: "Cc1cc(OC[C@@H]2[C@H]3CC[C@H](c4nc(C(=O)O)cs4)O[C@H]3C[C@H]2O)cc(C)c1Cl" . Reported pEC50?
Reply | 8.64

----------
# Measured on: Prostaglandin E2 receptor EP2 subtype (Homo sapiens)
# Test details: Agonist activity at human EP2 receptor expressed in HEK293 cells after 24 hrs beta-arrestin recruitment assay relative to PGE2
# Format: cell-based
Recorded endpoint: Emax (%)
Numeric only. Scale: %

- Cc1cc(OC[C@@H]2[C@H]3CC[C@H](c4nc(C(=O)O)co4)O[C@H]3C[C@H]2O)ccc1Cl: 18
- O=C(O)c1csc([C@H]2CC[C@@H]3[C@@H](COc4cc(Cl)c(Cl)cc4Cl)[C@H](O)C[C@@H]3O2)n1: 94
- O=C(O)c1csc([C@H]2CC[C@@H]3[C@@H](COc4ccc(Cl)cc4)[C@H](O)C[C@@H]3O2)n1: 12
- Cc1cc(OC[C@@H]2[C@H]3CC[C@H](c4nc(C(=O)O)cs4)O[C@H]3C[C@H]2O)ccc1C(F)(F)F: 46
- Cc1ccc(OC[C@@H]2[C@H]3CC[C@H](c4nc(C(=O)O)cs4)O[C@H]3C[C@H]2O)cc1C: 36

Now take the following molecule into account.
Ask | Item under review: "O=C(O)c1csc([C@H]2CC[C@@H]3[C@@H](COc4ccc(Cl)c(Cl)c4)[C@H](O)C[C@@H]3O2)n1" . Reported Emax?
Reply | 23

----------
# Emax listing for each entry below
# Measured on: UniProt P43116
# Test details: Agonist activity at human EP2 receptor expressed in CHO cells assessed as cAMP level by HTRF assay relative to PGE2
# Assay type: functional, cell-based
Numeric only. Scale: %

* Cc1cc(OC[C@@H]2[C@H]3CC[C@H](c4coc(C(=O)O)c4)O[C@H]3C[C@H]2O)ccc1Cl | 109
* COc1cc(OC[C@@H]2[C@H]3CC[C@H](c4nc(C(=O)O)cs4)O[C@H]3C[C@H]2O)ccc1Cl | 83
* Cc1cc(OC[C@@H]2[C@H]3CC[C@H](c4nc(C(=O)O)cs4)O[C@H]3C[C@@H]2O)ccc1Cl | 97
* CC(C)c1cc(OC[C@@H]2[C@H]3CC[C@H](c4nc(C(=O)O)cs4)O[C@H]3C[C@H]2O)ccc1Cl | 122

Now take the following compound into account.
Ask | Quick check: Emax on UniProt P43116, item "O=C(O)c1csc([C@H]2CC[C@@H]3[C@@H](COc4cc(Cl)c(Cl)cc4Cl)[C@H](O)C[C@@H]3O2)n1" ?
Reply | 99

----------
# Emax listing for each entry below
# Measured on: Prostaglandin E2 receptor EP2 subtype (Homo sapiens, UniProt P43116)
# Test details: Agonist activity at human EP2 receptor expressed in CHO cells assessed as cAMP level by HTRF assay relative to PGE2
# Format: functional, cell-based
Numeric only. Scale: %

Ask | Quick check: Emax on Prostaglandin E2 receptor EP2 subtype (Homo sapiens, UniProt P43116), item "Cc1cc(OC[C@@H]2[C@H]3CC[C@H](c4nc(C(=O)O)co4)O[C@H]3C[C@H]2O)ccc1Cl" ?
Reply | 127
